Cited source: the SangsterLogP compilation

Please provide measured logD for the entries that follow.
experiment: method code SF, from Hansch, C. & Leo, A. (1987). Log P database [Dataset]. Pomona College Medicinal Chemistry Project.; conditions: pH 4.2
Answer with a bare number; do not write a unit.

response.value for NC(=O)c1nc[nH]c1N=NN(CCO)Cc1ccccc1 (field: logD) = 0.99

Recorded logD (compound COCCN(N=Nc1[nH]cnc1C(N)=O)C(C)(C)C ): 1.14

logD recorded for this compound, Nc1nc(=O)c2[nH]nnc2[nH]1 , is -0.71

* * *

test: method code SF, from Hansch, C. & Leo, A. (1987). Log P database [Dataset]. Pomona College Medicinal Chemistry Project.; conditions: pH 0.5
measured_property: logD
Just the number, please.

Recorded result, CC(O)COc1cccc2oc(C(=O)O)cc(=O)c12 (stereo unspecified) , logD: 1.32

* * *

Can you tell me logD for the items I'm about to list?
assay: method code SF, from Hansch, C. & Leo, A. (1987). Log P database [Dataset]. Pomona College Medicinal Chemistry Project.; details: pH 7.4
Starred links: 1 amine or outer side, 2 acyl side, 3 side chain; linkers in the order of their positions; H or OH if unused. Positions of bridges follow the written chain, without caps; N, C: chain ends. Non-standard residues stand in square brackets, D forms with d. Residues, ends and D or L forms follow the SMILES beside them. Chains are numbered I, II in the order given. Actinocin(9to1) = Cc1c2oc3c(C)ccc(C(=O)[*:1])c3nc-2c(C(=O)[*:2])c(N)c1=O; NMeV = CN[CH](C(=O)O)C(C)C; Sar = CNCC(=O)O
Form rule: numeric answer, no unit written next to it.

Briefly, logD measured for Cc1c(N(C)C)c(=O)n(C)c(=O)n1-c1ccccc1 : 1.19

# logD of C=CCN(CC=C)c1c(C)n(-c2ccccc2)c(=O)n(C)c1=O = 2.59

Entry Cc1c2oc3c(C)ccc(C(=O)NC4C(=O)NC(C(C)C)C(=O)N5CCCC5C(=O)N(C)CC(=O)N(C)C(C(C)C)C(=O)OC4C)c3nc-2c(C(=O)NC2C(=O)NC(C(C)C)C(=O)N3CCCC3C(=O)N(C)CC(=O)N(C)C(C(C)C)C(=O)OC2C)c(N)c1=O (stereo not drawn) (I: TVP[Sar][NMeV] / II: TVP[Sar][NMeV]; ester I:1-I:C, II:1-II:C; linker I:N-II:N via Actinocin(9to1); configuration not given here) — recorded logD = 3.21

logD measured on Cc1cc(C(=O)NNCc2ccccc2)no1 = 1.49

OC[C@H]1O[C@@H](n2cnc3c(=S)nc[nH]c32)[C@H](O)[C@@H]1O yielded logD of -0.6

logD measured on Cc1c(N(C)C)c(=O)n(-c2ccccc2)c(=O)n1C = 1.3

logD measured on CC(=O)Nc1ccccc1C(C)C = 1.71

Record NC(=S)N/N=C/c1ccc(O)cn1 . Reported logD: 0.69

* * *

experiment: method code SF, from Hansch, C. & Leo, A. (1987). Log P database [Dataset]. Pomona College Medicinal Chemistry Project.
Residues, ends and D or L forms follow the SMILES beside them.
Lab note: compare logP with 1, writing rule met if less and rule not met if equal or more.

Query: Hello, I'm reviewing records and need to know if logP of CC(=O)Nc1ccccc1Br is below 1. Could you check?
Result: rule not met

Query: Regarding CC(C)C(=O)Nc1ccc(Cl)c(Cl)c1 , kindly confirm whether its logP is beneath 1.
Result: rule not met

Query: Given CC(=O)OCC(COC(C)=O)OC(C)=O , is recorded logP strictly lower than 1?
Result: rule met

Query: Quick check: does OC[C@@H]1C[C@H]1c1ccccc1 have logP under 1?
Result: rule not met

Query: is_below(logP, 1) for CCNC(N)=O ?
Result: rule met

Query: Determine if ClC(Cl)=Nc1ccccc1 shows logP strictly lower than 1.
Result: rule not met

Query: Determine whether this compound shows logP lower than 1 (ties excluded): O=C(C=Cc1ccco1)c1ccco1
Result: rule not met

Query: # TODO verify logP < 1 strictly for this compound: O=C1OC(c2ccccc2)c2ccccc21 (stereo not drawn)
Result: rule not met

Query: Is 1 strictly greater than the compound's reported logP? compound: NNC(=O)NN=Cc1ccccc1
Result: rule met

Query: Criterion: logP strictly below 1. Is it met by CCc1cnc(C=Cc2ccc([N+](=O)[O-])o2)nc1 ?
Result: rule not met

Query: # check: logP < 1 for O=[N+]([O-])c1ccc2[nH]c(CCCc3nc4cc([N+](=O)[O-])ccc4[nH]3)nc2c1
Result: rule not met

Query: logP strictly < 1 for this compound? CCOC(=O)C(=Cc1ccccc1OC)C(=O)OCC
Result: rule not met

Query: Lab log: compare recorded logP with 1; is it strictly lower for O=c1cc2ccccc2n[nH]1 ?
Result: rule met

Query: Please determine if Cc1ccc(S(=O)(=O)Oc2ccccc2C(=O)N(C)C)cc1 is below 1 in terms of logP.
Result: rule not met

Query: A record lists O=C1CCCCO1 . Is its logP below 1?
Result: rule met

Query: Item O=[N+]([O-])c1ccc(C=Cc2nc[nH]n2)o1 : logP beneath 1, strictly?
Result: rule not met

Query: Is logP strictly under 1 for the entry O=C(O)c1cccc(CSc2ccccc2)c1O ?
Result: rule not met

Query: Decide: logP of CCOC(=O)C(=Cc1cccc(F)c1)C(=O)OCC strictly below 1?
Result: rule not met

Query: Item CCC1OC(=O)C(C)C(OC2CC(C)(OC)C(O)C(C)O2)C(C)C(OC2OC(C)CC(N(C)C)C2O)C(C)(O)CC(C)C(=O)C(C)C(OC(C)=O)C1C (stereo not drawn) : logP beneath 1, strictly?
Result: rule not met

Query: Record Cc1ccc(Cl)cc1C : is its logP strictly below 1?
Result: rule not met

Query: # strict comparison: is reported logP < 1? input = NC(=O)[C@H](Cc1ccccc1)NC(=O)[C@@H](N)Cc1ccccc1 (H-Phe-Phe-NH2)
Result: rule not met

Query: Report whether reported logP is lower than 1 (strictly) for N#Cc1cccc(C(N)=O)c1
Result: rule met

Query: logP under 1? Item: CCCC(=O)Nc1ccc(Cl)c(Cl)c1
Result: rule not met

Query: Check if logP falls below 1 for O=S1(=O)NC(C2=CCCC2)=Nc2ccccc21 .
Result: rule not met

Query: For O=C(CO)OCc1ccccc1 , is the recorded logP below the cut-off of 1?
Result: rule not met

Query: Is it true that logP reported for O=C(O)CSCc1ccccc1 is less than 1?
Result: rule not met

Query: Lab note: logP threshold 1. Does this compound come in strictly under it? CC(=O)c1ccccc1O
Result: rule not met

Query: Given the entry CCC(=O)CCCN(C)c1ccc(S(=O)(=O)N(C)C)cc1 , would its reported logP be below 1?
Result: rule met

* * *

experiment: method code SF, from Hansch, C. & Leo, A. (1987). Log P database [Dataset]. Pomona College Medicinal Chemistry Project.
Could you please report measured logP for the items listed next?
Answer with a number only.

Reported logP of OC(c1nc2ccccc2[nH]1)C(O)c1nc2ccccc2[nH]1 (stereo not given) : 1.14

get_value(item= COC1C=COC2(C)Oc3c(C)c(O)c4c(O)c(c(/C=N\N5CCCCCCCCCC5)c(O)c4c3C2=O)NC(=O)/C(C)=C\C=C/C(C)C(O)C(C)C(O)C(C)C(OC(C)=O)C1C (stereo not given) , readout=logP) returns 4.05

response.value for CN(C)C(=O)c1ccsc1 (field: logP) = 0.55

Given item CC(=O)Nc1ccc(CN(C)/N=N/c2ccc(C(=O)O)cc2)cc1 , the value recorded as its logP is 3.35

For reference, reported logP for N#CN=[N+]([O-])c1cccc([N+](=O)[O-])c1 stands at 1.45

* * *

assay: method code SF, from Hansch, C. & Leo, A. (1987). Log P database [Dataset]. Pomona College Medicinal Chemistry Project.; settings: pH 7.4
measured_property: logD
Lab note: write the figure by itself, no unit.

The compound identified as C=CCn1c(C)c(N(C)C)c(=O)n(-c2ccccc2)c1=O registered its logD at 1.44

Per the records, this compound ( Cc1c(N(C)C)c(=O)n(-c2ccccc2)c(=O)n1CCO ) has logD equal to 0.85

// recorded logD for Cc1c(NCC(C)C)c(=O)n(-c2ccccc2)c(=O)n1C : 1.48

The reported value for CC12CCC(=O)C=C1CCC1C2CCC2(C)C1CCC21CCC(=O)O1 (configuration not stated) in terms of logD is 2.75

The compound listed as CC(O)C(C)(C)C(O)C(=O)OCC1=CC[N+]2([O-])CCC(O)C12 (configuration not stated) has a reported logD of -1.52

Form field logD, entry Cc1c(N(C)C)c(=O)n(C)c(=O)n1-c1ccc(Cl)cc1 : 2.32

Data point: c1cc2n(n1)CCN2 ; logD = -0.25

Memo: C#CCN(C)/N=N/c1nc[nH]c1C(N)=O , reported logD: 0.33

get_value(item= Cc1c(N(C)C)c(=O)n(CCO)c(=O)n1-c1ccccc1 , readout=logD) returns 1.12

Value of measured logD for the entry COc1ccc(-n2c(C)c(N(C)C)c(=O)n(C)c2=O)cc1 : 1.96

logD for O/N=C/CCc1ccccc1 is 1.56

Given item CCn1c(C)c(N(C)C)c(=O)n(-c2ccccc2)c1=O , the value recorded as its logD is 1.8
